These entries and their values trace back to PubChem BioAssay AID1963875.

system: KRAS-mutant PDC complex spheroid viability; assay: Anticancer human tumor 186277-243-T-J2-PDC patient-derived colon adenocarcinoma cell line growth inhibition [KRAS2]; details: second compound 0.0316 µM; first compound 0.001 µM; hits give low values
Can you tell me viability, T/C for the items I'm about to list?
One number for each entry, in %.

• Cn1ncnc1[C@H]1c2n[nH]c(=O)c3cc(F)cc(c23)N[C@@H]1c1ccc(F)cc1 + C=CC(=O)N1CCN(c2nc(OCC3CCCN3C)nc3c2CCN(c2cccc4cccc(C)c24)C3)CC1CC#N = 109
• CC(C)n1nc(-c2ccc3oc(N)nc3c2)c2c(N)ncnc21 + C=CC(=O)N1CCN(c2nc(OCC3CCCN3C)nc3c2CCN(c2cccc4cccc(C)c24)C3)CC1CC#N = 78.9
• CC(=O)Nc1cccc(-n2c(=O)n(C3CC3)c(=O)c3c(Nc4ccc(I)cc4F)n(C)c(=O)c(C)c32)c1 + C=CC(=O)N1CCN(c2nc(OCC3CCCN3C)nc3c2CCN(c2cccc4cccc(C)c24)C3)CC1CC#N = 30.9

Field: next compound
GET /value?item= CN(C)C/C=C/C(=O)Nc1cc2c(Nc3ccc(F)c(Cl)c3)ncnc2cc1O[C@H]1CCOC1 + C=CC(=O)N1CCN(c2nc(OCC3CCCN3C)nc3c2CCN(c2cccc4cccc(C)c24)C3)CC1CC#N &field=viability, T/C returns 106

* * *

system: KRAS-mutant PDC complex spheroid viability; assay: Anticancer human tumor 186277-243-T-J2-PDC cell line growth inhibition [KRAS2]; settings: second compound 0.316 µM; first compound 0.316 µM; hits give low values;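 also: viability read after seven days of compound exposure; 100% = DMSO vehicle-treated spheroids so lower means less viable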
ENDPOINT LABEL: viability, T/C (%)
Numbers only, in %.

Guide cases for viability, T/C, answers given:
- COc1cc(Nc2ncc3c(n2)-c2ccc(Cl)cc2C(c2c(F)cccc2OC)=NC3)ccc1C(=O)O + C=CC(=O)N1CCN(c2nc(OCC3CCCN3C)nc3c2CCN(c2cccc4cccc(C)c24)C3)CC1CC#N: 27.4
- CCNC(=O)CC1N=C(c2ccc(Cl)cc2)c2cc(OC)ccc2-n2c(C)nnc21 (stereo not drawn) + CC1OCC2(CCN(c3cnc(Sc4ccnc(N)c4Cl)c(N)n3)CC2)C1N: 103
- COc1cc2nccc(Oc3ccc(NC(=O)C4(C(=O)Nc5ccc(F)cc5)CC4)cc3)c2cc1OC + C=CC(=O)N1CCN(c2nc(=O)n(-c3c(C)ccnc3C(C)C)c3nc(-c4c(O)cccc4F)c(F)cc23)C(C)C1: 98.2

Give measured viability, T/C for every item shown.
1. Cn1nccc1Nc1nccc(-c2cc3c(s2)C(C)(C)N(CCN2CCOCC2)C3=O)n1 + COc1cc2nc(C)nc(NC(C)c3cc(N)cc(C(F)(F)F)c3)c2cc1OC1CCOC1
2. COc1cc2nccc(Oc3ccc(NC(=O)C4(C(=O)Nc5ccc(F)cc5)CC4)cc3)c2cc1OC + CC1OCC2(CCN(c3cnc(Sc4ccnc(N)c4Cl)c(N)n3)CC2)C1N
3. COc1cc(Nc2ncc3c(n2)-c2ccc(Cl)cc2C(c2c(F)cccc2OC)=NC3)ccc1C(=O)O + CNCc1ccccc1-c1csc(C(C)Nc2nc(C)nc3cc(OC)c(OC)cc23)c1
4. COC(=O)c1ccc2c(C(=Nc3ccc(N(C)C(=O)CN4CCN(C)CC4)cc3)c3ccccc3)c(O)[nH]c2c1 + COc1cc2nc(C)nc(NC(C)c3cc(N)cc(C(F)(F)F)c3)c2cc1OC1CCOC1
5. COc1cc(Nc2ncc3c(n2)-c2ccc(Cl)cc2C(c2c(F)cccc2OC)=NC3)ccc1C(=O)O + COc1cc2nc(C)nc(NC(C)c3cc(N)cc(C(F)(F)F)c3)c2cc1OC1CCOC1

[48, 109, 28.8, 100, 26.1]

Give measured viability, T/C for every item shown.
1. COc1cc2nccc(Oc3ccc(NC(=O)C4(C(=O)Nc5ccc(F)cc5)CC4)cc3)c2cc1OC + C=CC(=O)N1CCN(c2nc(OCC3CCCN3C)nc3c2CCN(c2cccc4cccc(C)c24)C3)CC1CC#N
2. CCN1CCN(Cc2ccc(Nc3ncc(F)c(-c4cc(F)c5nc(C)n(C(C)C)c5c4)n3)nc2)CC1 + CC1OCC2(CCN(c3cnc(Sc4ccnc(N)c4Cl)c(N)n3)CC2)C1N
3. CC(C)NCC(C(=O)N1CCN(c2ncnc3c2C(C)CC3O)CC1)c1ccc(Cl)cc1 (stereo not drawn) + C=CC(=O)N1CCN(c2nc(OCC3CCCN3C)nc3c2CCN(c2cccc4cccc(C)c24)C3)CC1CC#N
4. CC1OCC2(CCN(c3cnc(Sc4ccnc(N)c4Cl)c(N)n3)CC2)C1N (stereo not drawn) + C=CC(=O)N1CCN(c2nc(OCC3CCCN3C)nc3c2CCN(c2cccc4cccc(C)c24)C3)CC1CC#N
5. CCN1CCN(Cc2ccc(Nc3ncc(F)c(-c4cc(F)c5nc(C)n(C(C)C)c5c4)n3)nc2)CC1 + COc1cc2nc(C)nc(NC(C)c3cc(N)cc(C(F)(F)F)c3)c2cc1OC1CCOC1
6. CC1COCCN1c1cc(-c2ccnn2C)c2ccnc(-c3ccn[nH]3)c2n1 (stereo not drawn) + C=CC(=O)N1CCN(c2nc(=O)n(-c3c(C)ccnc3C(C)C)c3nc(-c4c(O)cccc4F)c(F)cc23)C(C)C1
7. COc1cc2nccc(Oc3ccc(NC(=O)C4(C(=O)Nc5ccc(F)cc5)CC4)cc3)c2cc1OC + COc1cc2nc(C)nc(NC(C)c3cc(N)cc(C(F)(F)F)c3)c2cc1OC1CCOC1
8. CC1(C)CCC(CN2CCN(c3ccc(C(=O)NS(=O)(=O)c4ccc(NCC5CCOCC5)c([N+](=O)[O-])c4)c(Oc4cnc5[nH]ccc5c4)c3)CC2)=C(c2ccc(Cl)cc2)C1 + C=CC(=O)N1CCN(c2nc(=O)n(-c3c(C)ccnc3C(C)C)c3nc(-c4c(O)cccc4F)c(F)cc23)C(C)C1

1: 116; 2: 125; 3: 62.4; 4: 102; 5: 146; 6: 4.65; 7: 97.8; 8: 102

Give measured viability, T/C for every item shown.
1. CCN1CCN(Cc2ccc(Nc3ncc(F)c(-c4cc(F)c5nc(C)n(C(C)C)c5c4)n3)nc2)CC1 + CNCc1ccccc1-c1csc(C(C)Nc2nc(C)nc3cc(OC)c(OC)cc23)c1
2. Cn1nccc1Nc1nccc(-c2cc3c(s2)C(C)(C)N(CCN2CCOCC2)C3=O)n1 + CC1OCC2(CCN(c3cnc(Sc4ccnc(N)c4Cl)c(N)n3)CC2)C1N

1: 144; 2: 22.5

* * *

Can you tell me viability, T/C for the items I'm about to list?
test system: KRAS-mutant PDC complex spheroid viability; test: Anticancer human tumor 186277-243-T-J2-PDC cell line growth inhibition [KRAS2]; conditions: second compound 0.1 µM; first compound 0.001 µM; hits give low values;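 also: viability read after seven days of compound exposure; 100% = DMSO vehicle-treated spheroids so lower means less viable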
One number for each entry, in %.

Give measured viability, T/C for every item shown.
1. CC(C)n1nc(-c2ccc3oc(N)nc3c2)c2c(N)ncnc21 + C=CC(=O)N1CCN(c2nc(OCC3CCCN3C)nc3c2CCN(c2cccc4cccc(C)c24)C3)CC1CC#N
2. CC(=O)Nc1cccc(-n2c(=O)n(C3CC3)c(=O)c3c(Nc4ccc(I)cc4F)n(C)c(=O)c(C)c32)c1 + C=CC(=O)N1CCN(c2nc(=O)n(-c3c(C)ccnc3C(C)C)c3nc(-c4c(O)cccc4F)c(F)cc23)C(C)C1
3. CC(=O)Nc1cccc(-n2c(=O)n(C3CC3)c(=O)c3c(Nc4ccc(I)cc4F)n(C)c(=O)c(C)c32)c1 + CNCc1ccccc1-c1csc(C(C)Nc2nc(C)nc3cc(OC)c(OC)cc23)c1
4. CC(=O)Nc1cccc(-n2c(=O)n(C3CC3)c(=O)c3c(Nc4ccc(I)cc4F)n(C)c(=O)c(C)c32)c1 + C=CC(=O)N1CCN(c2nc(OCC3CCCN3C)nc3c2CCN(c2cccc4cccc(C)c24)C3)CC1CC#N
5. CC(C)n1nc(-c2ccc3oc(N)nc3c2)c2c(N)ncnc21 + COc1cc2nc(C)nc(NC(C)c3cc(N)cc(C(F)(F)F)c3)c2cc1OC1CCOC1
6. CC(=O)Nc1cccc(-n2c(=O)n(C3CC3)c(=O)c3c(Nc4ccc(I)cc4F)n(C)c(=O)c(C)c32)c1 + CC1OCC2(CCN(c3cnc(Sc4ccnc(N)c4Cl)c(N)n3)CC2)C1N
7. Cn1ncnc1[C@H]1c2n[nH]c(=O)c3cc(F)cc(c23)N[C@@H]1c1ccc(F)cc1 + C=CC(=O)N1CCN(c2nc(OCC3CCCN3C)nc3c2CCN(c2cccc4cccc(C)c24)C3)CC1CC#N
8. CC(=O)Nc1cccc(-n2c(=O)n(C3CC3)c(=O)c3c(Nc4ccc(I)cc4F)n(C)c(=O)c(C)c32)c1 + COc1cc2nc(C)nc(NC(C)c3cc(N)cc(C(F)(F)F)c3)c2cc1OC1CCOC1

1. 101
2. 18
3. 16.4
4. 25.1
5. 96.3
6. 9.68
7. 98.5
8. 11.4

Give measured viability, T/C for every item shown.
1. Cn1ncnc1[C@H]1c2n[nH]c(=O)c3cc(F)cc(c23)N[C@@H]1c1ccc(F)cc1 + COc1cc2nc(C)nc(NC(C)c3cc(N)cc(C(F)(F)F)c3)c2cc1OC1CCOC1
2. CC(C)n1nc(-c2ccc3oc(N)nc3c2)c2c(N)ncnc21 + C=CC(=O)N1CCN(c2nc(=O)n(-c3c(C)ccnc3C(C)C)c3nc(-c4c(O)cccc4F)c(F)cc23)C(C)C1
3. CN(C)C/C=C/C(=O)Nc1cc2c(Nc3ccc(F)c(Cl)c3)ncnc2cc1O[C@H]1CCOC1 + C=CC(=O)N1CCN(c2nc(OCC3CCCN3C)nc3c2CCN(c2cccc4cccc(C)c24)C3)CC1CC#N
4. CC(C)n1nc(-c2ccc3oc(N)nc3c2)c2c(N)ncnc21 + CNCc1ccccc1-c1csc(C(C)Nc2nc(C)nc3cc(OC)c(OC)cc23)c1
5. CN(C)C/C=C/C(=O)Nc1cc2c(Nc3ccc(F)c(Cl)c3)ncnc2cc1O[C@H]1CCOC1 + C=CC(=O)N1CCN(c2nc(=O)n(-c3c(C)ccnc3C(C)C)c3nc(-c4c(O)cccc4F)c(F)cc23)C(C)C1
6. Cn1ncnc1[C@H]1c2n[nH]c(=O)c3cc(F)cc(c23)N[C@@H]1c1ccc(F)cc1 + CC1OCC2(CCN(c3cnc(Sc4ccnc(N)c4Cl)c(N)n3)CC2)C1N

1: 107; 2: 93.1; 3: 95.5; 4: 92.5; 5: 93.7; 6: 116

Give measured viability, T/C for every item shown.
1. Cn1ncnc1[C@H]1c2n[nH]c(=O)c3cc(F)cc(c23)N[C@@H]1c1ccc(F)cc1 + CNCc1ccccc1-c1csc(C(C)Nc2nc(C)nc3cc(OC)c(OC)cc23)c1
2. CN(C)C/C=C/C(=O)Nc1cc2c(Nc3ccc(F)c(Cl)c3)ncnc2cc1O[C@H]1CCOC1 + COc1cc2nc(C)nc(NC(C)c3cc(N)cc(C(F)(F)F)c3)c2cc1OC1CCOC1
3. CC(C)n1nc(-c2ccc3oc(N)nc3c2)c2c(N)ncnc21 + CC1OCC2(CCN(c3cnc(Sc4ccnc(N)c4Cl)c(N)n3)CC2)C1N

1. 109
2. 107
3. 101
